Biological target: T1, TNFR1 (Homo sapiens, UniProt P19438)
T1 chain: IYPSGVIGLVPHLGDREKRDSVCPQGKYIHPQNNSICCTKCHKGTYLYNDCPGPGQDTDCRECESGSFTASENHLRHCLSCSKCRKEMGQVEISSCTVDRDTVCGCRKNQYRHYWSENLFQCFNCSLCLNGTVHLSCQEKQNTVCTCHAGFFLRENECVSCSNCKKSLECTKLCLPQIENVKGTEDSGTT
Assay: yeast display SC50
Endpoint label: apparent Kd (screen) (pM)
Respond numerically; units are pM and should not be typed.

Assign apparent Kd (screen) to the following record: A90E (designed binder) MTLQELLREEALRRAEAEAFRYALELLAEKFPEQKEYLLDLAEEIESQIRSLSGVDVEDVRKFLDKEWAWVKELLAEHPAELAEVEAAREARLAELRAEVEAKVAA
490

Please look at this binder and report its apparent Kd (screen): E81G (designed binder) MTLQELLREEALRRAEAEAFRYALELLAEKFPEQKEYLLDLAEEIESQIRSLSGVDVEDVRKFLDKEWAWVKELLAEHPAGLAEVEAARAARLAELRAEVEAKVAA
539

Let me know recorded apparent Kd (screen) for H78D (designed binder) MTLQELLREEALRRAEAEAFRYALELLAEKFPEQKEYLLDLAEEIESQIRSLSGVDVEDVRKFLDKEWAWVKELLAEDPAELAEVEAARAARLAELRAEVEAKVAA , thanks.
593

Supply recorded apparent Kd (screen) for L93W (designed binder) MTLQELLREEALRRAEAEAFRYALELLAEKFPEQKEYLLDLAEEIESQIRSLSGVDVEDVRKFLDKEWAWVKELLAEHPAELAEVEAARAARWAELRAEVEAKVAA here.
539

Input V60M (designed binder) MTLQELLREEALRRAEAEAFRYALELLAEKFPEQKEYLLDLAEEIESQIRSLSGVDVEDMRKFLDKEWAWVKELLAEHPAELAEVEAARAARLAELRAEVEAKVAA , output reported apparent Kd (screen).
490

Please give the documented apparent Kd (screen) of R14H (designed binder) MTLQELLREEALRHAEAEAFRYALELLAEKFPEQKEYLLDLAEEIESQIRSLSGVDVEDVRKFLDKEWAWVKELLAEHPAELAEVEAARAARLAELRAEVEAKVAA
490

For E25K (designed binder) MTLQELLREEALRRAEAEAFRYALKLLAEKFPEQKEYLLDLAEEIESQIRSLSGVDVEDVRKFLDKEWAWVKELLAEHPAELAEVEAARAARLAELRAEVEAKVAA , write its apparent Kd (screen).
446

Indicate the recorded apparent Kd (screen) value for this binder: K66D (designed binder) MTLQELLREEALRRAEAEAFRYALELLAEKFPEQKEYLLDLAEEIESQIRSLSGVDVEDVRKFLDDEWAWVKELLAEHPAELAEVEAARAARLAELRAEVEAKVAA
490
